target: CLC-0 E166V mutant (Torpedo marmorata, UniProt P21564, C212S/E166V); assay type: cell-based; details: read-out: Apparent affinity (K1/2); −60 mV
measurement-kind: IC50 (µM)
Numbers only, in µM.

compound | measurement-kind | unit-annotation | observed
CCCCCCCC(=O)O [octanoate] | IC50 | µM | 126

### Prompt Quote IC50 with test system CLC-0 E166V mutant (Torpedo marmorata, UniProt P21564, C212S/E166V) for O=C(O)COc1ccc(Cl)cc1 [CPA, p-chlorophenoxy acetate]
### Response 373

* * *

biological target: CLC-0 E166V mutant (Torpedo marmorata, UniProt P21564, C212S/E166V); format: cell-based; details: read-out: Apparent affinity (K1/2); −80 mV
Provide the recorded pIC50 for the entries that follow.
Answers are plain numbers, as −log10 of the molar value.

compound | pIC50
O=C(O)COc1ccc(Cl)cc1 [CPA, p-chlorophenoxy acetate] | 3.70

Now let's try a different one.
### Prompt Tell us which pIC50 value is on record for CCCCCCCC(=O)O [octanoate]
### Response 4.17

* * *

target: CLC-0 E166N mutant (Torpedo marmorata, UniProt P21564, C212S/E166N); type: cell-based; settings: read-out: Apparent affinity (K1/2); −100 mV
measurement-kind: IC50 (µM)
Numbers only, in µM.

compound | measurement-kind | unit-annotation | observed
O=C(O)COc1ccc(Cl)cc1 [CPA, p-chlorophenoxy acetate] | IC50 | µM | 1850

Now let's try a different one.
### Prompt Tell us which IC50 value is on record for CCCCCCCC(=O)O [octanoate]
### Response 694

* * *

Biological target: CLC-0 E166A mutant (Torpedo marmorata, UniProt P21564, C212S/E166A)
Sequence (P21564 1-805 E166A/C212S): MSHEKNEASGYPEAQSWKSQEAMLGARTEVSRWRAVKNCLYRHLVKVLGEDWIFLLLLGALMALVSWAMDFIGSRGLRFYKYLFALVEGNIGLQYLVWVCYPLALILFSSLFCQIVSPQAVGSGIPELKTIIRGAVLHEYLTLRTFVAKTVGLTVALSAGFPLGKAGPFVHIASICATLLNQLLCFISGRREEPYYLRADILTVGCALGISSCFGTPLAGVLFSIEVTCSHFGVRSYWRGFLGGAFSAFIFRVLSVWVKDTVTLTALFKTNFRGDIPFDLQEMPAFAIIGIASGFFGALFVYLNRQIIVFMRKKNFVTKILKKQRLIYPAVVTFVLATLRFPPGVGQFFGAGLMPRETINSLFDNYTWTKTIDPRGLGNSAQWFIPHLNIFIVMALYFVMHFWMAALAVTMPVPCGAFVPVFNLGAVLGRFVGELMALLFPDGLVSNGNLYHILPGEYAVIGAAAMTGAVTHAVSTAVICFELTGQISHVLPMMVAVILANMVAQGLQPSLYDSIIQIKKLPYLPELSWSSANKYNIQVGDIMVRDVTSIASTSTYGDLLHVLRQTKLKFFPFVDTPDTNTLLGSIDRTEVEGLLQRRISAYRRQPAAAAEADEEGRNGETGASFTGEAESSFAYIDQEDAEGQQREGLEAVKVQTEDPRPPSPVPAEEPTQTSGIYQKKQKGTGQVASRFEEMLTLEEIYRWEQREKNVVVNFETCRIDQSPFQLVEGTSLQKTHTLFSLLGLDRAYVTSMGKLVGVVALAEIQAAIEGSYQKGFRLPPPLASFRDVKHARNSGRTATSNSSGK
Assay type: cell-based
Settings: read-out: Apparent affinity (K1/2); −60 mV
Provide the recorded pIC50 for the entries that follow.
Numbers only, as −log10 of the molar value.

molecule | pIC50
CCCCCCCC(=O)O [octanoate] | 4.53

Now let's try a different one.
### Prompt Tell us which pIC50 value is on record for O=C(O)COc1ccc(Cl)cc1 [CPA, p-chlorophenoxy acetate]
### Response 3.79

* * *

molecular target: CLC-0 E166Y mutant (Torpedo marmorata, UniProt P21564, C212S/E166Y); assay type: cell-based; details: read-out: Apparent affinity (K1/2); −60 mV
measurement-kind: pIC50
Numbers only, as −log10 of the molar value.

### Prompt Tell us which pIC50 value is on record for O=C(O)COc1ccc(Cl)cc1 [CPA, p-chlorophenoxy acetate]
### Response 2.55

* * *

molecular target: CLC-0 E166I mutant (Torpedo marmorata, UniProt P21564, C212S/E166I); format: cell-based; conditions: read-out: Apparent affinity (K1/2); −140 mV
measurement-kind: IC50 (µM)
Answers are plain numbers, in µM.

molecule | IC50 / µM
O=C(O)COc1ccc(Cl)cc1 [CPA, p-chlorophenoxy acetate] | 68

### Prompt Tell us which IC50 value is on record for CCCCCCCC(=O)O [octanoate]
### Response 15

* * *

target: CLC-0 E166V mutant (Torpedo marmorata, UniProt P21564, C212S/E166V); type: cell-based; conditions: read-out: Apparent affinity (K1/2); −40 mV
measurement-kind: pIC50
Answers are plain numbers, as −log10 of the molar value.

molecule | tested-target | pIC50
O=C(O)COc1ccc(Cl)cc1 [CPA, p-chlorophenoxy acetate] | CLC-0 E166V mutant (Torpedo marmorata, UniProt P21564, C212S/E166V) | 3.17

Now let's try a different one.
### Prompt Tell us which pIC50 value is on record for CCCCCCCC(=O)O [octanoate]
### Response 3.64

* * *

target: CLC-0 E166C/E127Q/K519M mutant (Torpedo marmorata, UniProt P21564, C212S/E127Q/E166C/K519M); format: cell-based; settings: read-out: Apparent affinity (K1/2); −60 mV
measurement-kind: pIC50
Give bare numbers, as −log10 of the molar value.

### Prompt Tell us which pIC50 value is on record for O=C(O)COc1ccc(Cl)cc1 [CPA, p-chlorophenoxy acetate]
### Response 3.62

* * *

target: CLC-0 E166Q mutant (Torpedo marmorata, UniProt P21564, C212S/E166Q); type: cell-based; conditions: read-out: Apparent affinity (K1/2); −160 mV
Provide the recorded IC50 for the entries that follow.
Reply with the number and its unit after it.

compound | IC50
O=C(O)COc1ccc(Cl)cc1 [CPA, p-chlorophenoxy acetate] | 3340 µM

Now let's try a different one.
### Prompt Tell us which IC50 value is on record for CCCCCCCC(=O)O [octanoate]
### Response 880 µM

* * *

biological target: CLC-0 E166C/K519E mutant (E127/K519E) (Torpedo marmorata, UniProt P21564, C212S/E166C/K519E); type: cell-based; conditions: read-out: Apparent affinity (K1/2); −140 mV
measurement-kind: pIC50
One number for each entry, as −log10 of the molar value.

### Prompt Tell us which pIC50 value is on record for O=C(O)COc1ccc(Cl)cc1 [CPA, p-chlorophenoxy acetate]
### Response 3.80

* * *

Biological target: CLC-0 E166I mutant (Torpedo marmorata, UniProt P21564, C212S/E166I)
Sequence (P21564 1-805 E166I/C212S): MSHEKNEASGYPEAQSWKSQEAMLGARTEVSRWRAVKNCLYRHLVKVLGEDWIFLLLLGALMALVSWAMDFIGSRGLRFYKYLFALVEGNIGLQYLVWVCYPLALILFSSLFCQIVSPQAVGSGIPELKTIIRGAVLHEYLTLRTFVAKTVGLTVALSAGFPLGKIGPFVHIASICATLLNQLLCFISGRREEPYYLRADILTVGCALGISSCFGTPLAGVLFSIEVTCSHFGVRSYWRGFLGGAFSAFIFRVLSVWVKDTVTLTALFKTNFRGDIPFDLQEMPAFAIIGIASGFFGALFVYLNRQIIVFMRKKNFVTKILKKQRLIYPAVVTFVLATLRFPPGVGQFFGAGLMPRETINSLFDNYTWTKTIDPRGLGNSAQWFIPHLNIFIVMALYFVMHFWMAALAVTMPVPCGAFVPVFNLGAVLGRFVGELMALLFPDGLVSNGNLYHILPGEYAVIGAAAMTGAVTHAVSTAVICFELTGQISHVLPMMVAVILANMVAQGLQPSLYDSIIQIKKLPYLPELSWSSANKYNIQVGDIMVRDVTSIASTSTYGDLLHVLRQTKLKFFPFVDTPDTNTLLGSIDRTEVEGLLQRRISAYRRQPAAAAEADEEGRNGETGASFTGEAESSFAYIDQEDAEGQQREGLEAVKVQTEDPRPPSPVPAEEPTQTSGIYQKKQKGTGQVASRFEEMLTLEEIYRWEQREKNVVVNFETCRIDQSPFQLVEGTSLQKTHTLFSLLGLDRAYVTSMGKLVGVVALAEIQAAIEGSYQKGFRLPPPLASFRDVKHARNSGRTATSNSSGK
Type: cell-based
Settings: read-out: Apparent affinity (K1/2); −80 mV
Provide the recorded pIC50 for the entries that follow.
One number for each entry, as −log10 of the molar value.

molecule | observed
CCCCCCCC(=O)O [octanoate] | 4.10

Now let's try a different one.
### Prompt Quote pIC50 with test system CLC-0 E166I mutant (Torpedo marmorata, UniProt P21564, C212S/E166I) for O=C(O)COc1ccc(Cl)cc1 [CPA, p-chlorophenoxy acetate]
### Response 3.42
